# method-notes: inhibition of 3D7 malaria parasite growth – strain 3D7 (AID 2306);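 further: 0% = DMSO wells and 100% = chloroquine plus artemisinin control wells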
# details: P. falciparum 3D7 erythrocytic growth, LDH absorbance, 72 h; at 2 µM; hits give high values
Active and inactive are the calls of the source. How the calls were made is not given here.
result-type: growth inhibition

Worked examples follow.
> print(dat)
                                   molecule        result.type         result
1  Cc1cccc2[nH]c(-c3ccc(-c4cccc(NC(=O)C(C)CN(C)C)c4)cc3)nc12 (stereo not given)  growth inhibition   99% (active)
2  COc1ccc(CNC(=O)c2cnc3cc(-c4c(C)noc4C)ccc3c2Nc2ccccc2C(C)(C)C)cc1  growth inhibition   99% (active)
3  O=C(N[C@@H](Cc1ccccc1)[C@H](O)CNC1CCCCC1)c1cc(C2CCCC2)cc(N2CCCC2=O)c1  growth inhibition  100% (active)
4  Cc1[nH]c(C)c(-c2ccc(Oc3ccc(Cl)cc3)cc2)c(=O)c1Br  growth inhibition   97% (active)
5     COc1cc(Cc2cnc(N)nc2N)ccc1Oc1ccc(N)cc1  growth inhibition   93% (active)

Proceed to the following item.
Incoming: Look up and report measured growth inhibition for this entry: O=C(CN1CCC2(CCC1=O)CC(=O)c1ccccc1O2)NCCN1CCOCC1 (stereo not given)
Outgoing: 101% (active)

---

# method-notes: HepG2 cytotoxicity, primary screen, cytotoxicity control for P. falciparum antimalarial project, cell-based, ATP luminescence (AID 2303);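 further: 0% = DMSO wells and 100% = digitonin-killed cells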
# details: HepG2 viability, 24-48 h, at 10 µM
The source made the active and inactive calls.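 How the source made its calls: active means inhibition above 50%; inactive means the rest.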
Outcome field: choose from y = active, n = inactive

Please review the following examples before continuing.
> print(dat)
                                   molecule  classification
1  Fc1cc(Cl)ccc1Nc1ccnc2cc(-c3ccc(CN4CCCCC4)o3)ccc12               n
2  CN1CCCCC1CCc1cc(C(=O)Nc2ccc(-c3ccc(O)cc3)cc2)ccc1O (centres undefined)               n
3  Cc1ccc(-c2cc3nc4c(c(NCCCn5ccnc5)n3n2)CCC4)cc1               n
4  CCCOc1cccc(C(=O)N[C@@H](Cc2ccccc2)[C@H](O)CNCc2ccccc2OC)c1               n
5  Cc1[nH]c2ccc(-c3ccc(OC(F)(F)F)cc3)cc2c(=O)c1C#N               n

Incoming: Please let me know the test result on file for O=[N+]([O-])c1cccc(NC(=S)N2CCCN(Cc3ccc(Cl)cc3Cl)CC2)c1 .
Outgoing: n

Incoming: Please let me know the test result on file for Cc1cc(NC(=O)c2cccs2)ccc1OC1CCN(Cc2ccccc2)C1 (centres undefined) .
Outgoing: n

Incoming: Please let me know the test result on file for CN(CC(=O)Nc1ccc(F)cc1)C(=O)c1ccc(-c2ccc(F)cc2)o1 .
Outgoing: n

Incoming: Please let me know the test result on file for Cn1nccc1C(=O)NCCNCc1cccc(-c2cccc(-c3nc4ccc(C(F)(F)F)cc4[nH]3)c2)c1 .
Outgoing: n

Incoming: Please let me know the test result on file for Cc1cccc2[nH]c(-c3cccc(-c4cccc(NC(=O)Nc5ccc(Cl)c(Cl)c5)c4)c3)nc12 .
Outgoing: n

Incoming: Please let me know the test result on file for Cc1[nH]c(C)c([N+](=O)[O-])c(=O)c1-c1ccc(Oc2ccc(OC(F)(F)F)cc2)cc1 .
Outgoing: n

Incoming: Please let me know the test result on file for CCCOc1ccc(CCNCCCCNCCc2ccc(OCCC)c3ccccc23)c2ccccc12 .
Outgoing: y

Incoming: Please let me know the test result on file for FC(F)(F)c1ccc2nc(-c3ccc(-c4ccc(CN5CCN(c6ccncc6)CC5)cc4)cc3)[nH]c2c1 .
Outgoing: y

Incoming: Please let me know the test result on file for Cc1csc(NC(=O)c2cn(-c3ccccc3)nc2-c2cccs2)n1 .
Outgoing: n

Provenance of the data: PubChem BioAssay
